Molecular target: Ba/F3_KRAS^G12D cells (Homo sapiens, UniProt P01116, G12D, cells depend on it)
Sequence (P01116 whole entry G12D): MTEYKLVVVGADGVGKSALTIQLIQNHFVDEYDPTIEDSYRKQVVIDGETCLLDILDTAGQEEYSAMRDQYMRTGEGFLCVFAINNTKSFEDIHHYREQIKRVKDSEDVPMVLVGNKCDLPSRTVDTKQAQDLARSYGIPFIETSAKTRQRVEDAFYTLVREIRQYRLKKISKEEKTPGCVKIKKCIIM
Assay: Ba/F3 KRAS G12D cell proliferation assay (CellTiter-Glo)
Format: cell-based
Conditions: treated for 3 days, cell-titer Glo, cell growth inhibition, read-out: BaF3_KRAS^G12D IC50
Quick list: GI50 per entry.

Example results:
[
  {
    "Molecule": "C#Cc1c(F)ccc2cc(O)cc(-c3ccc4c(N5CC6CCC(C5)N6)nc(OC[C@@]56CCCN5C[C@H](F)C6)nc4c3F)c12",
    "GI50": "< 0.5 µM"
  },
  {
    "Molecule": "Oc1cc(-c2c(Cl)cc3c(N4CC5CCC(C4)N5)nc(OCCN4CCCC4)nc3c2F)c2ccccc2c1",
    "GI50": "0.5 to 5 µM"
  },
  {
    "Molecule": "C#Cc1c(F)ccc2cc(O)cc(-c3cc(OC(C)C)c4c(N5CC6CCC(C5)N6)nc(OC[C@@]56CCCN5C[C@H](F)C6)nc4c3F)c12",
    "GI50": "< 0.5 µM"
  }
]

Proceed to the following item.
# query: GI50 of entry Oc1cc(-c2c(Cl)cc3c(N4CC5CCC(C4)N5)nc(OC[C@@]45CCCN4C[C@H](F)C5)nc3c2F)c2c(Cl)c(F)ccc2c1 (single isomer, unassigned) [Compound 139]
< 0.5 µM

* * *

Biological target: Ba/F3_KRAS^G12D cells (Homo sapiens, UniProt P01116, G12D, cells depend on it)
Experiment: Ba/F3 KRAS G12D cell proliferation assay (CellTiter-Glo)
Assay type: cell-based
Conditions: treated for 3 days, cell-titer Glo, cell growth inhibition, read-out: BaF3_KRAS^G12D IC50
Readout Name: GI50

[
  {
    "Substance Smiles": "Nc1cc2ccccc2c(-c2c(Cl)cc3c(N4CC5CCC(C4)N5)nc(OCC45CCCN4CCC5)nc3c2F)n1",
    "Tested Target": "Ba/F3_KRAS^G12D cells (Homo sapiens, UniProt P01116, G12D, cells depend on it)",
    "GI50": "> 5000 nM"
  },
  {
    "Substance Smiles": "Oc1cc(-c2c(Cl)cc3c(N4CC5CCC(C4)N5)nc(OCC45CCCN4CCC5)nc3c2F)c2ccccc2c1",
    "Tested Target": "Ba/F3_KRAS^G12D cells (Homo sapiens, UniProt P01116, G12D, cells depend on it)",
    "GI50": "< 500 nM"
  },
  {
    "Substance Smiles": "N#Cc1cc2c(N3CC4CCC(C3)N4)nc(OC[C@@]34CCCN3C[C@H](F)C4)nc2c(F)c1-c1c(N)cccc1F",
    "Tested Target": "Ba/F3_KRAS^G12D cells (Homo sapiens, UniProt P01116, G12D, cells depend on it)",
    "GI50": "500 to 5000 nM"
  }
]

Consider the record given below.
For CN1CCO[C@@H](COc2nc(N3CC4CCC(C3)N4)c3cc(Cl)c(-c4cc(O)cc5ccccc45)c(F)c3n2)C1 , what is its reported GI50?
500 to 5000 nM

* * *

Target: Ba/F3_KRAS^G12D cells (Homo sapiens, UniProt P01116, G12D, cells depend on it)
Assay: Ba/F3 KRAS G12D cell proliferation assay (CellTiter-Glo)
Assay type: cell-based
Conditions: treated for 3 days, cell-titer Glo, cell growth inhibition, read-out: BaF3_KRAS^G12D IC50
Readout Name: GI50

[
  {
    "Compound": "Oc1cc(-c2c(Cl)cc3c(N4CC5CCC(C4)N5)nc(OC[C@@]45CCCN4C[C@H](F)C5)nc3c2F)c2c(Cl)cccc2c1 (single isomer, unassigned) [Compound 104]",
    "GI50": "500 to 5000 nM"
  },
  {
    "Compound": "N#Cc1cc2c(N3CC4CCC(C3)N4)nc(OC[C@@]34CCCN3C[C@H](F)C4)nc2c(F)c1-c1cc(O)cc2ccccc12 [Compound 86]",
    "GI50": "< 500 nM"
  }
]

Any idea what GI50 was measured for CN1CCC2(CCN(c3nc(N4CC5CCC(C4)N5)c4cc(Cl)c(-c5cc(O)cc6ccccc56)c(F)c4n3)C2)C1 (stereo not drawn) [Compound 44] ?
500 to 5000 nM

Which measured GI50 value corresponds to Oc1cc(-c2c(OCC3CC3)cc3c(N4CC5CCC(C4)N5)nc(OC[C@@]45CCCN4C[C@H](F)C5)nc3c2F)c2c(Cl)cccc2c1 [Compound 124] ?
< 500 nM

Field request: GI50 | item: CN1CCC[C@H]1COc1nc(N2CCNC(CC(N)=O)C2)c2cc(Cl)c(-c3cc(O)cc4ccccc34)c(F)c2n1 (stereo partly drawn) [Compound 12]
> 5000 nM

// query GI50 value for entry C[C@H]1CNCCN1c1nc(OC[C@@H]2CCCN2C)nc2c(F)c(-c3cc(O)cc4ccccc34)c(Cl)cc12 [Compound 3]
500 to 5000 nM
